Entry source: PubChem BioAssay AID588475

Catalogue of compounds with associated inhibition
experiment: antagonists of CRF-BP/CRF-R2 complex, primary screen, cell-based, HEK293, calcium dye fluorescence, uHTS (AID 588475); settings: CRF-induced calcium fluorescence, at 11.8 µM, stronger effect = higher value
Screen size: about 350,000 compounds; about 2,100 (0.6%) were called active. The entries come from a sample that favours actives as a whole.
Enter your answer as a number in %; do not include the unit.

The cases that follow already have their inhibition on record.
compound: CCc1ccc(NC(=O)CC2C(=O)NCCN2C(=S)Nc2ccccc2)cc1 (stereo unspecified)
experimental.value: -42.6

compound: CSc1nnc(NC(=O)c2nc(S(=O)(=O)Cc3ccc(C)cc3)ncc2Cl)s1
experimental.value: 25.7

compound: O=C(CCC(=O)c1ccccc1)NCc1cccc(C(F)(F)F)c1
experimental.value: -4.39

compound: COc1ccc(OC)c(CNC(=O)Cn2nc(C)c3c(C)n(-c4ccc(C)cc4)nc3c2=O)c1
experimental.value: 9.58

compound: OC(C#CCN1CCOCC1)(c1ccccc1)C1CCCCC1 (stereo unspecified)
experimental.value: -6

# next compound below
Asked: inhibition lookup needed for Cn1nc(N)c2ncc(C(Cl)(Cl)Cl)nc21 , thanks.
Given back: 73.4

----------
Catalogue of compounds with associated inhibition
test: antagonists of CRF-BP/CRF-R2 complex, primary screen, cell-based, HEK293, calcium dye fluorescence, uHTS (AID 588475); conditions: CRF-induced calcium fluorescence, at 11.8 µM, stronger effect = higher value
About 2,100 (0.6%) of roughly 350,000 compounds were called active. This excerpt belongs to a sample that is enriched for actives.
Enter your answer as a number in %; do not include the unit.

The cases that follow already have their inhibition on record.
compound: COCCCNC(=O)C1CCC(CNS(=O)(=O)c2ccc(OC)cc2)CC1 (stereo not drawn)
inhibition, %: 5.65

compound: O=C(CN1CCC(NC(=O)Nc2ccccc2)CC1)Nc1cccc([N+](=O)[O-])c1
inhibition, %: 13.2

compound: COc1ccc(C)cc1NC(=O)CSc1ccc(Cl)cc1
inhibition, %: 5.69

compound: CCOC(=O)C(CC)/C(C)=N\NC(=O)c1cccc(C)c1 (stereo not drawn)
inhibition, %: 89

compound: O=C(CC1N=C2c3ccccc3N=C(SCc3ccccc3Cl)N2C1=O)NCc1ccco1 (stereo not drawn)
inhibition, %: 89.4

# next compound below
Asked: inhibition lookup needed for O=C(Nc1ccc(S(=O)(=O)Nc2ccccn2)cc1)c1ccccc1 , thanks.
Given back: -0.79

----------
experiment: antagonists of CRF-BP/CRF-R2 complex, primary screen, cell-based, HEK293, calcium dye fluorescence, uHTS (AID 588475); conditions: CRF-induced calcium fluorescence, at 11.8 µM, stronger effect = higher value
Among all 350,000 compounds or so, about 2,100 (0.6%) were called active. Many of the other results were omitted from the sample, so actives are more common in it than they were.
measured.parameter: inhibition

The cases that follow already have their inhibition on record.
molecule: Cc1ccccc1N1CCN(C2CCCN(C(=O)c3ocnc3C)C2)CC1 (configuration not stated)
experimental.value: 1% (inactive)
--
molecule: N#C/C(=C(/O)Cc1cccc2ccccc12)c1nc2ccccc2s1
experimental.value: 60.4% (active)
--
molecule: COc1ccc(-c2ccc(CCC(=O)O)n2NC(=O)c2ccc(C(C)(C)C)cc2)cc1
experimental.value: 7.59% (inactive)
--
molecule: COc1ccc(CCN2C(=O)C(C)=C(C)C2=O)cc1OC
experimental.value: -6.13% (inactive)
--
molecule: CC(=O)n1cc([C@H]2C=C(C(=O)N3CCOCC3)O[C@@H](OCc3ccc(CO)cc3)C2)c2ccccc21
experimental.value: -5.43% (inactive)
--
molecule: O=C1CC2(CCCC2)C(=O)N1CN1CCN(S(=O)(=O)c2ccc(F)cc2F)CC1
experimental.value: 6.17% (inactive)
--
molecule: Cc1cc(C(=O)OCC(=O)Nc2nccs2)c2ccccc2n1
experimental.value: 8.78% (inactive)
--
molecule: Cc1cc(OCCCC(=O)Nc2cc(S(=O)(=O)N3CCOCC3)ccc2N2CCOCC2)ccc1Cl
experimental.value: 62.5% (active)

Asked: inhibition lookup needed for CCOC(=O)C1=NNC2(c3ccc(Cl)cc3)C(=O)N(c3cc(C)cc(C)c3)C(=O)C12 (configuration not stated) , thanks.
Given back: 17.3% (inactive)

Asked: inhibition lookup needed for O=C(Nc1cccc(F)c1)c1coc(=O)c(Br)c1 , thanks.
Given back: 102% (active)

Asked: inhibition lookup needed for Cc1cnc(C(=O)N2CCCC(N3CCN(c4ccccc4F)CC3)C2)cn1 (configuration not stated) , thanks.
Given back: 14.5% (inactive)

Asked: inhibition lookup needed for O=C(O)CC/C(=C\c1cc2c(cc1Br)OCO2)c1nc2ccccc2s1 , thanks.
Given back: 8.13% (inactive)

Asked: inhibition lookup needed for O=C(CCN1C(=O)c2ccccc2C1=O)Nc1cccc(F)c1 , thanks.
Given back: -0.74% (inactive)

----------
Catalogue of molecules with associated inhibition
assay: antagonists of CRF-BP/CRF-R2 complex, primary screen, cell-based, HEK293, calcium dye fluorescence, uHTS (AID 588475); conditions: CRF-induced calcium fluorescence, at 11.8 µM, stronger effect = higher value
The whole screen tested about 350,000 compounds, of which about 2,100 (0.6%) were called active. For the sample, actives were picked, then their nearest neighbours and some compounds at random.
Enter your answer as a number in %; do not include the unit.

molecule: CCC(C)N(C(=O)CSc1ncnc2c1cnn2-c1ccccc1)C1CCS(=O)(=O)C1 (stereo not drawn)
experimental.value: -8.13
--
molecule: O=C(NCCS(=O)(=O)c1ccc(Br)cc1)c1ccccc1Cl
experimental.value: 71.2
--
molecule: Cc1cc([N+](=O)[O-])ccc1NS(=O)(=O)c1ccccc1
experimental.value: 17.8
--
molecule: Cc1nn(-c2ccc([N+](=O)[O-])cc2)c(N)c1-c1ccccc1
experimental.value: 51.6
--
molecule: O=C1c2ccccc2-c2ncnc3c(N4CCOCC4)cc(N4CCOCC4)c1c23
experimental.value: 54
--
molecule: CN(c1ccc(C(=O)NCCC2=CCCCC2)cc1)S(C)(=O)=O
experimental.value: 3.31
--
molecule: O=C(c1nnc(-c2ccc(Cl)cc2)o1)C1CCCC1
experimental.value: 1.38
--
molecule: CN1CCOC1c1ccc(C2OCCN2C)cc1 (stereo not drawn)
experimental.value: 4.93

Asked: inhibition lookup needed for CC(C)[C@H](NC(=O)N1CCn2c1nc1ccccc12)C(=O)NCc1ccc2c(c1)OCO2 , thanks.
Given back: -3.94

Asked: inhibition lookup needed for O=C(NCC(F)(F)F)c1ccc(S(=O)(=O)NCCc2ccc3c(c2)OCCO3)cc1 , thanks.
Given back: 2.25

Asked: inhibition lookup needed for O=C(c1[nH]ncc1-c1ccc(Cl)cc1)C1CO1 (stereo not drawn) , thanks.
Given back: 98.5

----------
assay: antagonists of CRF-BP/CRF-R2 complex, primary screen, cell-based, HEK293, calcium dye fluorescence, uHTS (AID 588475); details: CRF-induced calcium fluorescence, at 11.8 µM, stronger effect = higher value
About 2,100 (0.6%) of roughly 350,000 compounds were called active. The sample as a whole holds a higher share of actives than the screen did.
measured.parameter: inhibition (%)
Enter your answer as a number in %; do not include the unit.

The cases that follow already have their inhibition on record.
compound: O=C(O)C(NS(=O)(=O)c1cccc2nsnc12)c1ccccc1 (stereo unspecified)
unit.of.measure: %
inhibition: 8.07
--
compound: CN1CCN(CC(=O)C23CC4CC(CC(C4)C2)C3)CC1
unit.of.measure: %
inhibition: 7.99
--
compound: Cc1ccc(NS(=O)(=O)c2ccc(N/N=C/c3ccccc3OCC(=O)O)c([N+](=O)[O-])c2)c(C)c1
unit.of.measure: %
inhibition: 63.5
--
compound: COc1ccc(OC)c(S(=O)(=O)Nc2c(C)nn(C)c2C)c1
unit.of.measure: %
inhibition: 6.33
--
compound: C=C(C)CNC(=S)N/N=C/c1ccccc1OCC(=O)O
unit.of.measure: %
inhibition: -10.5

Asked: inhibition lookup needed for O=C(Nc1cccn(Cc2c(Cl)cccc2Cl)c1=O)c1ccc(Cl)cc1 , thanks.
Given back: -7

Asked: inhibition lookup needed for CN(C)CCCN(Cc1cc2cc3c(cc2[nH]c1=O)OCCO3)C(=O)NC1CCCCC1 , thanks.
Given back: -6.7

Asked: inhibition lookup needed for COc1ccc(/C=C/C(=O)Nc2c(C)nn(C)c2C)cc1COc1ccc(Br)cc1 , thanks.
Given back: 60.5

Asked: inhibition lookup needed for CCn1nc(C)c(NC(=O)/C=C/c2ccc(OC)c(COc3ccc(Br)cc3)c2)c1C , thanks.
Given back: 30.8

Asked: inhibition lookup needed for CC(C)c1cc(C(=O)N(C)C2CCCN(Cc3ccccc3F)C2)n(C)n1 (stereo unspecified) , thanks.
Given back: -12.1

----------
Catalogue of compounds with associated inhibition
experiment: antagonists of CRF-BP/CRF-R2 complex, primary screen, cell-based, HEK293, calcium dye fluorescence, uHTS (AID 588475); details: CRF-induced calcium fluorescence, at 11.8 µM, stronger effect = higher value
Out of some 350,000 compounds screened, about 2,100 (0.6%) were called active. The entries come from a sample that favours actives as a whole.
Enter your answer as a number in %; do not include the unit.

The cases that follow already have their inhibition on record.
compound: Cc1ccc(CNC(=O)c2cc(-c3ccccc3C)n(CC3CC(c4cccc([N+](=O)[O-])c4)=NO3)n2)cc1 (stereo unspecified)
inhibition (%): 78.1

compound: COc1cc(C2C(C(=O)Nc3ccc(F)cc3)=C(C)Nc3nc(CCCO)nn32)cc(OC)c1OC (stereo unspecified)
inhibition (%): 5.65

compound: COCCn1c(C)cc(C(=O)CSc2nc3ccccc3c(=O)n2C(C)COC)c1C (stereo unspecified)
inhibition (%): 25.5

compound: C/C(=N/NC(=O)CSc1ccccn1)c1ccc([N+](=O)[O-])cc1
inhibition (%): 1.41

compound: COC(=O)c1nc2n(n1)C(c1ccc([N+](=O)[O-])cc1)C(C(=O)Nc1ccc(Cl)cc1)=C(C)N2 (stereo unspecified)
inhibition (%): 56.3

compound: O=[N+]([O-])c1cc(Br)c(O)c(/C=N/Nc2nc3ccccc3s2)c1
inhibition (%): 67.2

compound: CCCN(CCc1ccccc1)C1CCc2c(O)cccc2C1 (stereo unspecified)
inhibition (%): -13

compound: Cc1cc(-c2nnc(SCC(=O)Nc3ccc(S(N)(=O)=O)cc3)n2N)n[nH]1
inhibition (%): 9.63

Asked: inhibition lookup needed for COCC(C)n1c(SCC(=O)NC2CCCCC2C)nc2ccccc2c1=O (stereo unspecified) , thanks.
Given back: 6.09

Asked: inhibition lookup needed for c1ccc(C(=NNc2nc3ccccc3s2)c2ccccn2)cc1 , thanks.
Given back: -36.8

Asked: inhibition lookup needed for Cc1ccc(S(=O)(=O)/N=C(\CN2CCOCC2)N2CCOCC2)cc1 , thanks.
Given back: 12.5

Asked: inhibition lookup needed for Cc1cccc(CSc2nnc(C)c(=O)n2N)c1 , thanks.
Given back: 18.4
